# credit: patent US11919856B2

measured-target: Z-alpha-1-antitrypsin (Z-A1AT) (Homo sapiens, UniProt P01009, E366K/V237A)
Construct: Z-alpha-1-antitrypsin was purified from human plasma
Sequence (P01009 25-418 V237A/E366K): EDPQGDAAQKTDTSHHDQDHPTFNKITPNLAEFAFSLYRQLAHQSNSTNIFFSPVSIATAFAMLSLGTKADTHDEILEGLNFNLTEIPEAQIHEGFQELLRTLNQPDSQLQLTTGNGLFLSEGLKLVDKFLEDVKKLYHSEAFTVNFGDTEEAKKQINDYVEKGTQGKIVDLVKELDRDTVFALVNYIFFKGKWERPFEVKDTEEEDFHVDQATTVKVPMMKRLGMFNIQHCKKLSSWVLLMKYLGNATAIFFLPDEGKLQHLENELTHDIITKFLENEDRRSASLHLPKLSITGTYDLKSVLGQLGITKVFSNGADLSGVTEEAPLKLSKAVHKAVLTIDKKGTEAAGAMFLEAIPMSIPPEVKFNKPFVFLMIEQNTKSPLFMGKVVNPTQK
procedure-summary: Inhibition of Z-alpha-1-antitrypsin polymerisation TR-FRET assay
reported-conditions: mean, 5 nM Z-A1AT, 72 hours at 37° C.
recorded-metric: IC50
Please state the value followed by its unit.

Some entries whose results are on file:
>>> df
                                   compound  endpoint_value
0  CCC[C@@H](NC(=O)c1cccc2c1CC(=O)N2)[C@@H](O)c1cccc(F)c1C [Compound 1]         5.01 nM
1  CCC[C@@H](NC(=O)c1ccc(F)c2c1CC(=O)N2)[C@@H](O)c1cccc(F)c1Cl [Compound 4]         6.31 nM
2  CCC[C@@H](NC(=O)c1ccc(F)c2c1CC(=O)N2)[C@@H](O)c1cccc(C#N)c1Cl [Compound 3]         3.16 nM

Continue with the next compound.
Report IC50 for CCC[C@@H](NC(=O)c1cccc2c1CC(=O)N2)[C@@H](O)c1cccc(Cl)c1C [Compound 2] 2.51 nM

----------
measured-target: Z α1-antitrypsin (Homo sapiens, UniProt P01009, E366K/V237A)
procedure-summary: Secretion of Z α1-antitrypsin from CHO-TET-ON-Z-A1AT cells (immunoassay of supernatant)
Type: cell-based
Set-up: expressed in transfected cells; host or cells: CHO Tet-On (CHO-K1) cells, doxycycline-induced
reported-conditions: cellular secretion assay; read-out: EC50 measured for secretion of Z α1-antitrypsin
recorded-metric: EC50

Using Z α1-antitrypsin (Homo sapiens, UniProt P01009, E366K/V237A) as the test system, report measured EC50 of "CCC[C@@H](NC(=O)c1cccc2c1CC(=O)N2)[C@@H](O)c1cccc(F)c1C" . ~300 nM

----------
procedure-summary: Total and free drug in blood and liver of Z α1-antitrypsin transgenic mice
Assay type: in vivo, mouse
reported-conditions: Z α1-antitrypsin transgenic, mouse, blood, oral; 100 mg/kg three times a day, day 6, majority of the dosing period; read-out: Cmin levels of the free drug concentration in blood
recorded-metric: concentration at 8 h

Report concentration at 8 h for "CCC[C@@H](NC(=O)c1cccc2c1CC(=O)N2)[C@@H](O)c1cccc(F)c1C" ≥ 300 nM
